target-desc: CD73 on U138 human neuroglioma cells (Homo sapiens)
Construct: U138 cells were obtained from ATCC and cultured in DMEM with 10% FBS; host or cells: U138 human neuroglioma cells
Sequence (P21589 27-549): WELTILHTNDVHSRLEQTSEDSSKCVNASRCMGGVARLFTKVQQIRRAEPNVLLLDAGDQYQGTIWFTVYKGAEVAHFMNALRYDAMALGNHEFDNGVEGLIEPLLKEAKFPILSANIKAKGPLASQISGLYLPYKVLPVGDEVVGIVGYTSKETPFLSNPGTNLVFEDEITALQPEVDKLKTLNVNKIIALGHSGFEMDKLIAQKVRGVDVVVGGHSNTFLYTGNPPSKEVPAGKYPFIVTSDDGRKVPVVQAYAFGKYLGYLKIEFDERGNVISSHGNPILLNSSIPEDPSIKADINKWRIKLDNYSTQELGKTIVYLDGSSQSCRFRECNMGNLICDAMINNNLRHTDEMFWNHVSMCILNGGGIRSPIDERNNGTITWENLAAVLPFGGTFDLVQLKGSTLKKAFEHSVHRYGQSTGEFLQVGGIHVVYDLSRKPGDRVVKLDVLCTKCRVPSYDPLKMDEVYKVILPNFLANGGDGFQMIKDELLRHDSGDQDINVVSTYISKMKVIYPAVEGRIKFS
test-summary: CD73 Cell-Based Assay (inorganic phosphate from AMP, malachite green)
measurement-setup: AMP substrate, 2 hours at 37° C., read-out: CD73 Cell-Based assay IC50
measured-parameter: IC50

[[record]]
compound = "N#Cc1c(Cl)nc2c(c(F)cn2[C@@H]2O[C@H](CS(=O)(=O)CP(=O)(O)O)[C@@H](O)[C@H]2O)c1N1CCC(F)(F)C1"
measured_parameter = "IC50"
result = "> 100 nM"

[[record]]
compound = "N#Cc1c(Cl)nc2c(cnn2[C@@H]2O[C@H](CS(=O)(=O)CP(=O)(O)O)[C@@H](O)[C@H]2O)c1N[C@H]1C[C@@H](F)C1"
measured_parameter = "IC50"
result = "< 10 nM"

[[record]]
compound = "C[C@H](Nc1c(C#N)c(Cl)nc2c1ccn2[C@@H]1O[C@H](CS(=O)(=O)CP(=O)(O)O)[C@@H](O)[C@H]1O)c1ccc(F)cc1"
measured_parameter = "IC50"
result = "< 10 nM"

[[record]]
compound = "NC(=O)c1c(Cl)nc2c(ccn2C2O[C@H](COCP(=O)(O)O)[C@@H](O)[C@H]2O)c1NC1CCCC1 (stereo partly shown)"
measured_parameter = "IC50"
result = "10 to 100 nM"

[[record]]
compound = "N#Cc1c(Cl)nc2c(cnn2[C@@H]2O[C@H](COP(=O)(O)CP(=O)(O)O)[C@@H](O)[C@@H]2F)c1N1CCC(F)(F)C1"
measured_parameter = "IC50"
result = "< 10 nM"

[[record]]
compound = "N#Cc1c(Cl)nc2c(ccn2[C@@H]2O[C@H](COCP(=O)(O)O)[C@@H](O)[C@H]2O)c1N1CCC(F)(F)C1"
measured_parameter = "IC50"
result = "< 10 nM"

[[record]]
compound = "N#Cc1c(Cl)nc2c(ccn2[C@@H]2O[C@H](COP(=O)(O)CP(=O)(O)O)[C@@H](O)[C@H]2O)c1NC1CC2CC2C1 (stereo partly shown)"
measured_parameter = "IC50"
result = "< 10 nM"

[[record]]
compound = "N#Cc1c(Cl)nc2c(ncn2[C@@H]2O[C@H](COCP(=O)(O)O)[C@@H](O)[C@H]2O)c1N1CC[C@H](F)C1"
measured_parameter = "IC50"
result = "< 10 nM"

[[record]]
compound = "C[C@H](Nc1c(C#N)c(Cl)nc2c1ncn2[C@@H]1O[C@H](COP(=O)(O)CP(=O)(O)O)[C@@H](O)[C@@H]1F)c1ccc(F)cc1"
measured_parameter = "IC50"
result = "< 10 nM"

[[record]]
compound = "N#Cc1c(Cl)nc2c(cnn2[C@@H]2O[C@H](CS(=O)(=O)CP(=O)(O)O)[C@@H](O)[C@H]2O)c1NC1CCC(F)(F)CC1"
measured_parameter = "IC50"
result = "< 10 nM"

[[record]]
compound = "N#Cc1c(Cl)nc2c(cnn2[C@@H]2O[C@H](CS(=O)(=O)CP(=O)(O)O)[C@@H](O)[C@H]2O)c1NC1CC2CC2C1 (stereo partly shown)"
measured_parameter = "IC50"
result = "< 10 nM"

[[record]]
compound = "O=P(O)(O)CS(=O)(=O)C[C@H]1O[C@@H](n2ccc3c(NC4CCCC4)cc(Cl)nc32)[C@H](O)[C@@H]1O"
measured_parameter = "IC50"
result = "< 10 nM"

[[record]]
compound = "N#Cc1c(Cl)nc2c(cnn2[C@@H]2O[C@H](CS(=O)(=O)CP(=O)(O)O)[C@@H](O)[C@H]2O)c1NC1CC(F)(F)C1"
measured_parameter = "IC50"
result = "< 10 nM"

